Origin of values: ChEMBL document CHEMBL3991601

Active and inactive are the calls of the source.
Recorded below: Kd, system 5'-AMP-activated protein kinase subunit gamma-2 (Homo sapiens, UniProt Q9UGJ0). Note: in the data inactive means no Kd found up to 30 µM.

Worked set:
{"structure": "CC[C@H](Nc1ncnc2[nH]cnc12)c1nc2cccc(F)c2c(=O)n1-c1ccccc1", "Kd": "> 30 µM (inactive)"}
{"structure": "CNC(=O)c1cc(Oc2ccc(NC(=O)Nc3ccc(Cl)c(C(F)(F)F)c3)c(F)c2)ccn1", "Kd": "> 30 µM (inactive)"}
{"structure": "CCc1cnn2c(NCc3ccc[n+]([O-])c3)cc(N3CCCC[C@H]3CCO)nc12", "Kd": "> 30 µM (inactive)"}

We now examine a further compound.
Entry CC[C@@H]1C(=O)N(C)c2cnc(Nc3ccc(C(=O)N[C@H]4CC[C@H](N5CCN(CC6CC6)CC5)CC4)cc3OC)nc2N1C(C)C , tested on 5'-AMP-activated protein kinase subunit gamma-2 (Homo sapiens, UniProt Q9UGJ0), has a reported Kd of > 30 µM (inactive)

###

Active and inactive are the calls of the source.
Recorded below: Kd, system Tyrosine-protein kinase SYK (Homo sapiens, UniProt P43405). Note: in the data inactive means no Kd found up to 30 µM.

The reported Kd of the compound Cn1cc(-c2ccc3nnc(C(F)(F)c4ccc5ncccc5c4)n3n2)cn1 was > 30 µM (inactive)

The reported Kd of the compound COc1cc(OC)c(/C=C/S(=O)(=O)Cc2ccc(OC)c(NCC(=O)O)c2)c(OC)c1 was > 30 µM (inactive)

The reported Kd of the compound CCCS(=O)(=O)Nc1ccc(F)c(C(=O)c2c[nH]c3ncc(-c4ccc(Cl)cc4)cc23)c1F was > 30 µM (inactive)

The reported Kd of the compound CN(C)C(=O)c1cc2cnc(Nc3ccc(N4CCNCC4)cn3)nc2n1C1CCCC1 was > 30 µM (inactive)

The reported Kd of the compound C1=C/COCc2cc(ccc2OCCN2CCCC2)Nc2nccc(n2)-c2cccc(c2)COC/1 was > 30 µM (inactive)

The reported Kd of the compound C[C@@H]1CN(Cc2ccc(F)cc2)[C@@H](C)CN1C(=O)c1cc2c(C(=O)C(=O)N(C)C)cn(C)c2cc1Cl was > 30 µM (inactive)

The reported Kd of the compound CNC(=O)c1cc(Oc2ccc(NC(=O)Nc3ccc(Cl)c(C(F)(F)F)c3)c(F)c2)ccn1 was > 30 µM (inactive)

The reported Kd of the compound O=C(Nc1ccc(-c2ccnc(Nc3ccc(N4CCOCC4)cc3)n2)cc1)C1CCCN1 (stereo not drawn) was > 30 µM (inactive)

###

Kd overview
# subject-of-test: Serine/threonine-protein kinase 26 (Homo sapiens)
# Sequence (Q9P289 whole entry): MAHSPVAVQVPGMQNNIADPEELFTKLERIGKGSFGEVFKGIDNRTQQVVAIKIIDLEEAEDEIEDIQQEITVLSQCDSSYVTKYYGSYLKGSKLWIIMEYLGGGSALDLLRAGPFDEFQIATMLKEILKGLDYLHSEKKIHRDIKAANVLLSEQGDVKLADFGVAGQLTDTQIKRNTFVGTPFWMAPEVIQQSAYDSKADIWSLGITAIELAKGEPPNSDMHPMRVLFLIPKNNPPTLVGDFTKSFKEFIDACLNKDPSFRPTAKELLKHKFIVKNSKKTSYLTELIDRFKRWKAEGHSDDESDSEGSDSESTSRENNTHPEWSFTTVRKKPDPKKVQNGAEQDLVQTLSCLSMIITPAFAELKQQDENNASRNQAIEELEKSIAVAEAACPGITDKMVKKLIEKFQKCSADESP
Calls of active or inactive are those of the source.

Worked set:
{"molecule": "CN(C)C(=O)c1cc2cnc(Nc3ccc(N4CCNCC4)cn3)nc2n1C1CCCC1", "measured-endpoint": "Kd", "data-value": "> 30 µM (inactive)"}
{"molecule": "CC(C)Nc1cc(-c2c[nH]c(C(=O)N[C@H](CO)c3cccc(Cl)c3)c2)c(Cl)cn1", "measured-endpoint": "Kd", "data-value": "> 30 µM (inactive)"}
{"molecule": "COc1cc(OC)c(/C=C/S(=O)(=O)Cc2ccc(OC)c(NCC(=O)O)c2)c(OC)c1", "measured-endpoint": "Kd", "data-value": "> 30 µM (inactive)"}

The reported Kd of the molecule Cn1ncc(Cl)c1-c1cc(C(=O)N[C@H](CN)Cc2cccc(F)c2)sc1Cl was > 30 µM (inactive)

The reported Kd of the molecule COc1ccc(-c2ccc3c(N4CCOC[C@@H]4C)nc(N4CCOC[C@@H]4C)nc3n2)cc1CO was > 30 µM (inactive)

The reported Kd of the molecule O=C(Nc1ccc(-c2ccnc(Nc3ccc(N4CCOCC4)cc3)n2)cc1)C1CCCN1 (configuration not stated) was > 30 µM (inactive)

The reported Kd of the molecule CO[C@H]1C[C@@H]2CC[C@@H](C)[C@@](O)(O2)C(=O)C(=O)N2CCCC[C@H]2C(=O)O[C@H]([C@H](C)C[C@@H]2CC[C@@H](OCCO)[C@H](OC)C2)CC(=O)[C@H](C)/C=C(\C)[C@@H](O)[C@@H](OC)C(=O)[C@H](C)C[C@H](C)/C=C/C=C/C=C/1C was > 30 µM (inactive)

###

Recorded below: Kd, system Putative heat shock protein HSP 90-beta 2 (Homo sapiens). Note: in the data inactive means no Kd found up to 30 µM.
Calls of active or inactive are those of the source.

{"compound": "CNC(=O)CN1CCC(Oc2cc3c(Nc4cccc(Cl)c4F)ncnc3cc2OC)CC1", "subject-of-test": "Putative heat shock protein HSP 90-beta 2 (Homo sapiens)", "Kd": "> 30 µM (inactive)"}

The reported Kd of the compound Cn1ncc(Cl)c1-c1cc(C(=O)N[C@H](CN)Cc2cccc(F)c2)sc1Cl was > 30 µM (inactive)

The reported Kd of the compound O=C(Nc1ccc(-c2ccnc(Nc3ccc(N4CCOCC4)cc3)n2)cc1)C1CCCN1 (stereo not given) was > 30 µM (inactive)

The reported Kd of the compound C1=C/COCc2cc(ccc2OCCN2CCCC2)Nc2nccc(n2)-c2cccc(c2)COC/1 was > 30 µM (inactive)

The reported Kd of the compound Cc1nc(N)sc1-c1ccnc(Nc2ccc(N3CCOCC3)cc2)n1 was > 30 µM (inactive)

###

# subject-of-test: Activin receptor type-1 (Homo sapiens)
# Sequence (Q04771 whole entry): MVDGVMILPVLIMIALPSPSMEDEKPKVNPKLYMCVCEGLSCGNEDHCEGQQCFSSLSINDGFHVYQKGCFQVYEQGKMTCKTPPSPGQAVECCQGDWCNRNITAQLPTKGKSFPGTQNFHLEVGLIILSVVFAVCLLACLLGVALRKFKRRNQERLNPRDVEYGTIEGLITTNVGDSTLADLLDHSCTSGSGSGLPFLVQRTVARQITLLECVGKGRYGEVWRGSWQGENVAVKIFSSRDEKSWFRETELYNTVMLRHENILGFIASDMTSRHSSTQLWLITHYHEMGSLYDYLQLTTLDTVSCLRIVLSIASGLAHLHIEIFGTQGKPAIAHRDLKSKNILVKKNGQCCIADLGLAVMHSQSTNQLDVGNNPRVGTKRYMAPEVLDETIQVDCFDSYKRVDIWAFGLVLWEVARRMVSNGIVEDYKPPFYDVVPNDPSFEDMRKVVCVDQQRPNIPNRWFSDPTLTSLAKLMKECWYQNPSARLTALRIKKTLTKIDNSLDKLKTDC
Calls of active or inactive are those of the source.
Reply using exactly one outcome from yes (active), no (inactive)

{"compound": "CO[C@H]1C[C@@H]2CC[C@@H](C)[C@@](O)(O2)C(=O)C(=O)N2CCCC[C@H]2C(=O)O[C@H]([C@H](C)C[C@@H]2CC[C@@H](OCCO)[C@H](OC)C2)CC(=O)[C@H](C)/C=C(\\C)[C@@H](O)[C@@H](OC)C(=O)[C@H](C)C[C@H](C)/C=C/C=C/C=C/1C", "qualitative-label": "no"}

Consider now this further compound.
Query: Short answer needed: outcome of this test for O=C(Nc1cccc(Cl)c1)Nc1ncc(CCNc2ncnc3ccsc23)s1 ?
Response: no

###

# subject-of-test: Mitogen-activated protein kinase kinase kinase 1 (Homo sapiens)
# Sequence (Q13233 whole entry): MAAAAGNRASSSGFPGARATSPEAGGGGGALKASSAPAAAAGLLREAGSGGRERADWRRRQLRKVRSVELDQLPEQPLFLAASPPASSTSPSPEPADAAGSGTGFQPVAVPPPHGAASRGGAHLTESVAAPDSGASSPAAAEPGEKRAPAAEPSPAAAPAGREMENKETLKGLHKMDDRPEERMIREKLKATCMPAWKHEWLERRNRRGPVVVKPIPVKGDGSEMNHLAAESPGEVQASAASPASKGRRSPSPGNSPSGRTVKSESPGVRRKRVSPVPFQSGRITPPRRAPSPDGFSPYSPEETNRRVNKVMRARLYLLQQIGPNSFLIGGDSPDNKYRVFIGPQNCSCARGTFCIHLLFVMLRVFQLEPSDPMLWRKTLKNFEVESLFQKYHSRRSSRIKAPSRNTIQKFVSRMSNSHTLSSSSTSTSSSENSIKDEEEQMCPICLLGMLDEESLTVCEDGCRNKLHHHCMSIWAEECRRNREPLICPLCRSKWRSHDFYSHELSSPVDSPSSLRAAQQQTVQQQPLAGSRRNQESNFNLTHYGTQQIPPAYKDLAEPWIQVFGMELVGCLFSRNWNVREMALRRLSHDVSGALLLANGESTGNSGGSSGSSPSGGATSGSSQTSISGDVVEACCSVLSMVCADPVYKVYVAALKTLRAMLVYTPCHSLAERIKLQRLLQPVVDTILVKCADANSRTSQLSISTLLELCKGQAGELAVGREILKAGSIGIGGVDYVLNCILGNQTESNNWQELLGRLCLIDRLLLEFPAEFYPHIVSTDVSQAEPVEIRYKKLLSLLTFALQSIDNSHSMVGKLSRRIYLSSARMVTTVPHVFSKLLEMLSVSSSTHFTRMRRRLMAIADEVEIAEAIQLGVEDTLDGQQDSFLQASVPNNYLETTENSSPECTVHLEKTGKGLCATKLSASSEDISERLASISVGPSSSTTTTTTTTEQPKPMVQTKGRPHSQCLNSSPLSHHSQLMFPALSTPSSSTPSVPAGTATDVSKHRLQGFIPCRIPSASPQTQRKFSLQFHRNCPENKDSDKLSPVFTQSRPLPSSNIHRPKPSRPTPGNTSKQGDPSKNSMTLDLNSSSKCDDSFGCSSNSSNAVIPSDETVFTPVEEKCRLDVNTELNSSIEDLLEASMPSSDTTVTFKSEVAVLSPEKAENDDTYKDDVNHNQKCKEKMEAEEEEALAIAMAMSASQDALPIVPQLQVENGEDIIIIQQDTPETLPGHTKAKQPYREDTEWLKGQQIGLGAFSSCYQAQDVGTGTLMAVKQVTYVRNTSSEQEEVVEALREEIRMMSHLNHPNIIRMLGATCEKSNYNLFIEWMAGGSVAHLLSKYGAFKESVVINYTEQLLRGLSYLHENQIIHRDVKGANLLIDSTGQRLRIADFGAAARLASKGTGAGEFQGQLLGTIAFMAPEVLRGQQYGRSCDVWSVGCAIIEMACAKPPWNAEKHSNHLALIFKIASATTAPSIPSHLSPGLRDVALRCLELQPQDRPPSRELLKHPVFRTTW
Active and inactive are the calls of the source.
Reply using exactly one outcome from active, inactive

Query: Short answer needed: outcome of this test for O=c1sn(-c2cccc3ccccc23)c(=O)n1Cc1ccccc1 [TIDEGLUSIB] ?
Response: inactive

Query: Short answer needed: outcome of this test for CNC(=O)c1ccc(C)c(-n2c(C)cc(OCc3ccc(F)cc3F)c(Br)c2=O)c1 [PH-797804] ?
Response: inactive

Query: Short answer needed: outcome of this test for CCc1cnn2c(NCc3ccc[n+]([O-])c3)cc(N3CCCC[C@H]3CCO)nc12 [DINACICLIB] ?
Response: inactive

Query: Short answer needed: outcome of this test for CC(=O)Nc1cccc(-n2c(=O)n(C3CC3)c(=O)c3c(Nc4ccc(I)cc4F)n(C)c(=O)c(C)c32)c1 [TRAMETINIB] ?
Response: inactive

Query: Short answer needed: outcome of this test for CNC(=O)c1cc(Oc2ccc(NC(=O)Nc3ccc(Cl)c(C(F)(F)F)c3)c(F)c2)ccn1 [REGORAFENIB] ?
Response: active

Query: Short answer needed: outcome of this test for CN1CCC(COc2cnc(-c3cccc(Cn4nc(-c5cccc(C#N)c5)ccc4=O)c3)nc2)CC1 [TEPOTINIB] ?
Response: inactive

Query: Short answer needed: outcome of this test for Cc1c(F)cc(C(=O)NC2CC2)cc1-c1ccc(C(=O)NCC(C)(C)C)cn1 [LOSMAPIMOD] ?
Response: inactive

Query: Short answer needed: outcome of this test for Cc1nc(N)sc1-c1ccnc(Nc2ccc(N3CCOCC3)cc2)n1 [CYC-116] ?
Response: active

###

# subject-of-test: cAMP-dependent protein kinase catalytic subunit beta (Homo sapiens)
Activity calls are given as the source filed them.
Kd overview

{"structure": "Cc1cc([C@@H](C)Nc2ccccc2C(=O)O)c2nc(N3CCOCC3)cc(=O)n2c1", "subject-of-test": "cAMP-dependent protein kinase catalytic subunit beta (Homo sapiens)", "data-value": "> 30 µM (inactive)"}
{"structure": "COc1cc2nccc(Oc3ccc(NC(=O)Nc4cc(C)on4)c(Cl)c3)c2cc1OC", "subject-of-test": "cAMP-dependent protein kinase catalytic subunit beta (Homo sapiens)", "data-value": "> 30 µM (inactive)"}
{"structure": "C=CC(=O)N1CCC(Oc2cc3c(Nc4ccc(Cl)c(Cl)c4F)ncnc3cc2OC)CC1", "subject-of-test": "cAMP-dependent protein kinase catalytic subunit beta (Homo sapiens)", "data-value": "> 30 µM (inactive)"}
{"structure": "COC(=O)N[C@@H](C)CNc1nccc(-c2cn(C(C)C)nc2-c2cc(Cl)cc(NS(C)(=O)=O)c2F)n1", "subject-of-test": "cAMP-dependent protein kinase catalytic subunit beta (Homo sapiens)", "data-value": "> 30 µM (inactive)"}

The reported Kd of the compound Cc1c(F)cc(C(=O)NC2CC2)cc1-c1ccc(C(=O)NCC(C)(C)C)cn1 was > 30 µM (inactive)

The reported Kd of the compound CO[C@H]1C[C@@H]2CC[C@@H](C)[C@@](O)(O2)C(=O)C(=O)N2CCCC[C@H]2C(=O)O[C@H]([C@H](C)C[C@@H]2CC[C@@H](OCCO)[C@H](OC)C2)CC(=O)[C@H](C)/C=C(\C)[C@@H](O)[C@@H](OC)C(=O)[C@H](C)C[C@H](C)/C=C/C=C/C=C/1C was > 30 µM (inactive)
